Provenance of the data: patent US20230151091A1

Target: T1, mouse MuSK (mouse, UniProt Q61006 22-494, limits assumed)
T1 construct: Coated on ELISA plates or on the Biacore chip; also called full length mouse MuSK; mouse MuSK (in house produced in HEK293 cells)
T1 sequence (looked up): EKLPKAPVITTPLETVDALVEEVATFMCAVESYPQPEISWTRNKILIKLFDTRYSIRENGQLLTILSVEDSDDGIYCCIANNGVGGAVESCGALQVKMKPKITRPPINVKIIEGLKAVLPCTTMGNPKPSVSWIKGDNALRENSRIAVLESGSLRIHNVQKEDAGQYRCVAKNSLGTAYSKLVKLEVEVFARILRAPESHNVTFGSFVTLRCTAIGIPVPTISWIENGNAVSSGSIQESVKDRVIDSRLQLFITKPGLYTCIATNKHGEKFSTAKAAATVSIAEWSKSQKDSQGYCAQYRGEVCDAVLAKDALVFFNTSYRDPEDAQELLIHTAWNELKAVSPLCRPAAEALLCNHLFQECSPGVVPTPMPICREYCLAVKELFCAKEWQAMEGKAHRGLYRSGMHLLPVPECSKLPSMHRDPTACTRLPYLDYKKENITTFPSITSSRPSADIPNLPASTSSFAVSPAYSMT
Test: Biacore, MuSK on chip (200RU), 66.7 nM mAb, dissociation pH 7.4
Measure Name: kon (M⁻¹ s⁻¹)
All answers are understood in M⁻¹ s⁻¹, so give the number only.

Worked cases, kon given:
Give the measured kon of 3B2g2m2 (antibody, human IgG1, V domains shown, human IgG1-LALA backbone; produced in HEK293 cells) VH: EVQLLESGGGLVQPGGSLRLSCAASGFTFSDYGMSWVRQAPGKGLEWVSAIPGSGGSTYYKESVKGRFTISRDNSKNTLYLQMNSLRAEDTAVYYCAKRSGRIAFGALDAWGQGTLVTVSS VL: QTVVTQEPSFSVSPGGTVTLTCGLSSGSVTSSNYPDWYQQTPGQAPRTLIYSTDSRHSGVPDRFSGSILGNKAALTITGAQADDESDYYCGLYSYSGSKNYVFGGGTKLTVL .
1.71e+06

Which kon reading was recorded for the binder 3B2g2m1 (antibody, human IgG1, V domains shown, human IgG1-LALA backbone; produced in HEK293 cells; also called MuSK agonist antibody 3B2g2m1; MuSK-mAb 3B2g2m1) VH: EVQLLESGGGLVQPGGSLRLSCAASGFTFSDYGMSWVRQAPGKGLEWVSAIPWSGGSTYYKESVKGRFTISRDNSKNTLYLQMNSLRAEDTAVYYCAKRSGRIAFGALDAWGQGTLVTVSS VL: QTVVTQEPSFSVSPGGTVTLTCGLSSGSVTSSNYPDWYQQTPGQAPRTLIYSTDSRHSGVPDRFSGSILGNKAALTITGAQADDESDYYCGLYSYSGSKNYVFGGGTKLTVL ?
1.32e+06

Any idea what its kon is? The binder is 3B2g1m1 (antibody, human IgG1, V domains shown, human IgG1-LALA backbone; produced in HEK293 cells) VH: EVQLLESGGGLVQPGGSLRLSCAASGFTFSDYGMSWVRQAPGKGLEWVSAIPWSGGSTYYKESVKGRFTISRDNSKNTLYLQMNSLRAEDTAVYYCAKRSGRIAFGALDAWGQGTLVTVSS VL: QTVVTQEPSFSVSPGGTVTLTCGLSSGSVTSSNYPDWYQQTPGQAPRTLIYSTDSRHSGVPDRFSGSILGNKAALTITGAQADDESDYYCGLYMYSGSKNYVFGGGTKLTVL
1.25e+06

I am curious: what kon value has been reported for 3B2g1m4 (antibody, human IgG1, V domains shown, human IgG1-LALA backbone; produced in HEK293 cells) VH: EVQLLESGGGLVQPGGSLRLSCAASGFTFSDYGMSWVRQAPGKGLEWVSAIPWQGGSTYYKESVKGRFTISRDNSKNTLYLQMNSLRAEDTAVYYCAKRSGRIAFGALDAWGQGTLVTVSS VL: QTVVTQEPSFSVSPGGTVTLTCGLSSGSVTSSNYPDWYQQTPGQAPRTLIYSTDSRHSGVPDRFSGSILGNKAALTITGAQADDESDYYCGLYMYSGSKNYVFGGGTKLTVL ?
1.08e+06

Quick one: kon for 3B2g1m2 (antibody, human IgG1, V domains shown, human IgG1-LALA backbone; produced in HEK293 cells) VH: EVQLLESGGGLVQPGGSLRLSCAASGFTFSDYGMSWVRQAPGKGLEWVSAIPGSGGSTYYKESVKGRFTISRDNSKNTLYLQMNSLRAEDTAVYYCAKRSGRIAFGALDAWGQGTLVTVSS VL: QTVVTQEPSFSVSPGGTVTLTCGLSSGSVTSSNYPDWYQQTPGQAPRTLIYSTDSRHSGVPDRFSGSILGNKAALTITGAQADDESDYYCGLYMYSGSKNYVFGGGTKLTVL ?
1.61e+06

Could you now look at the following binder, please?
Given 3B2g2m4 (antibody, human IgG1, V domains shown, human IgG1-LALA backbone; produced in HEK293 cells) VH: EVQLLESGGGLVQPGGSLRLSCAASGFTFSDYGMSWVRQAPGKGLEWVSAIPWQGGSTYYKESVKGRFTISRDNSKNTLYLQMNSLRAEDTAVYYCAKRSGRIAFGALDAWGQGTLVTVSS VL: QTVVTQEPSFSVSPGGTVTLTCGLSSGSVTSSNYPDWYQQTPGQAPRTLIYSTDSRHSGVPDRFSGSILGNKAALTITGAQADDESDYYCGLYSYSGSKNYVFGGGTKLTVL , state its recorded kon.
1.15e+06
